method_summary: Selectivity index, ratio of CC50 for african green monkey Vero cells to ED50 for Poliovirus 2 Sabin 2
Type: toxicity, cell-based
Binning of selectivity ratio into classes: low bracket = under 2, middle bracket = from 2 up to 10, high bracket = 10 and over

Consider the following illustrative entries.
- molecule: "COc1cc2c(cc1O)C[C@@H]1NCCc3cc(O)c(OC)c-2c31 [NORBOLDINE]"
  category_label: "low bracket"
- molecule: "COc1cc2c(cc1O)C[C@H]1c3c(cc(OC)c(OC)c3-2)CCN1C"
  category_label: "high bracket"
- molecule: "COc1cc2c3c(c1OC)-c1ccccc1C[C@H]3N(C)CC2.Cl [NUCIFERINE HYDROCHLORIDE]"
  category_label: "high bracket"
- molecule: "COc1c2c3c(c4c1OCO4)-c1ccccc1[C@H](O)[C@H]3N(C)CC2 [GUATTERINE]"
  category_label: "low bracket"
- molecule: "COc1cc2c(cc1OC)-c1c(OC)c(OC)cc3c1[C@H](C2)N(C)CC3.O=C(O)/C=C/C(=O)O [GLAUCINE FUMARATE]"
  category_label: "high bracket"
- molecule: "COc1cc2c(cc1O)C[C@@H]1NCCc3cc(OC)c(OC)c-2c31 [LAUROTETANINE]"
  category_label: "middle bracket"
- molecule: "COc1cc2c(cc1O)C[C@H]1c3c(cc(OC)c(O)c3-2)CCN1C.Cl [ISOBOLDINE HYDROCHLORIDE]"
  category_label: "high bracket"
- molecule: "CO[C@H]1c2ccccc2-c2c3c(cc4c2[C@@H]1N(C)C[C@@H]4O)OCO3 [PACHYSTAUDINE]"
  category_label: "middle bracket"

Turning now to a further molecule:
Q: // bin(item) where item = COc1cc2c(cc1OC)-c1c(OC)c(OC)cc3c1[C@H](C2)N(C(C)=O)CC3
Result: middle bracket
